Values were extracted from ChEMBL document CHEMBL1134927.

System: HEK293
assay.notes: Effective dose required to inhibit beta-amyloid formation in a human kidney cell line (HEK 293)
Type: functional
recorded.conditions: read-out: ED50 (the source's name)
pEC50: −log10 of the molar value.
endpoint: pEC50

C[C@H](NC(=O)Cc1cc(F)cc(F)c1)C(=O)N(C)[C@H](C)[C@H](O)c1ccccc1 < 5.00
C[C@H](NC(=O)Cc1cc(F)cc(F)c1)C(=O)N[C@H](c1ccccc1)[C@@H](O)c1ccccc1 < 5.00
C[C@H](NC(=O)Cc1cc(F)cc(F)c1)C(=O)N(C)[C@@H](C)[C@@H](O)c1ccccc1 < 5.00
